Attribute: Ratio Ki
organism: Homo sapiens; assay: Selectivity ratio of Ki for human TSPO A147T mutant to Ki for human wild type TSPO
Write the value as a bare number.

Worked cases, Ratio Ki given:
CCN(CC)C(=O)Cn1c2ccccc2c2cc(-c3ccccc3)ccc21; 5.1
CCN(CC)C(=O)Cn1c2ccccc2c2cc(Br)ccc21; 5.1
CCN(CC)C(=O)Cn1c2ccccc2c2cc(-c3ccc(OC)cc3)ccc21; 3.2
CCN(CC)C(=O)Cn1c2ccccc2c2cc(-c3ccccc3OC)ccc21; 5.4
CCN(CC)C(=O)Cn1c2ccccc2c2ccccc21; 5.9

Query: Can you share its Ratio Ki? I mean this compound: `CCN(Cc1ccccc1)C(=O)Cn1c2ccccc2c2ccccc21`
Response: 5

Query: Can you share its Ratio Ki? I mean this compound: `CCN(Cc1ccccc1)C(=O)Cn1c(=O)n(C)c2cnc(-c3ccccc3)nc21`
Response: 4.9

Ref: ChEMBL document CHEMBL4138055
